Test system: SR
Test: NCI tumour cell line growth inhibition, 48 h
Activity calls are given as the source filed them. Rule as the data show it: active = GI50 up to about 1.1 µM and inactive = higher.
Please reply with one of these outcomes: T for active, F for inactive

compound: C/C(=N/Nc1ccc([N+](=O)[O-])cc1[N+](=O)[O-])C(CC(C(=O)NCc1ccccc1)/C(C)=N\Nc1ccc([N+](=O)[O-])cc1[N+](=O)[O-])C(=O)NCc1ccccc1 (stereo not given)
group: F

Q: For `CCCCCCNC(=O)c1cnc(Cl)cn1` , what call appears in the results of this test?
Result: F

Q: Ok, now CCN(CC)C1Oc2cc3c(cc2C(c2cc(OC)c(OC)c(OC)c2)C1C)OCO3 (stereo not given)
Result: T

Q: Ok, now `C/C1=C\[C@H](C)C[C@H](C)OC(=O)C[C@H](c2ccc(O)cc2)NC(=O)[C@H](Cc2ccc(O)c(Br)c2)N(C)C(=O)[C@H](C)NC(=O)[C@@H](C)C1`
Result: F

Q: Ok, now `Cc1c[n+]([O-])c2ccccc2[n+]1[O-]`
Result: F

* * *

Tested on: M14
Experiment: NCI tumour cell line growth inhibition, 48 h
Activity calls are given as the source filed them. No stated cut-off is given here; in the data, active = GI50 up to about 1.1 µM and inactive = higher.
value.kind: GI50

Q: # get_value(readout= GI50, system= M14) for CC1(C)CCCC(C)(C2CCC3(C)C2C(O)CC2C4(C)CCC(O)C(C)(C)C4CCC23C)O1 (centres undefined)
Result: > 100 µM (inactive)

Q: Ok, now Cc1cc(O)c(C(=O)O)c2c1C(=O)c1c(O)c(OCC(O)C(O)C(O)C(O)CO)c(O)c(O)c1C2=O.NCCNCCO (centres undefined)
Result: > 100 µM (inactive)

* * *

Test system: K562
Assay: NCI tumour cell line growth inhibition, 48 h
Active and inactive are the calls of the source. Cut-off read from the data, not from the text of the source: active = GI50 up to about 1.1 µM and inactive = higher.
value.kind: GI50

molecule: CCOC(=O)c1c(-c2ccc(Cl)cc2)c(C#N)c(=S)n(C2OC(CO)C(O)C(O)C2O)c1-c1ccccc1 (stereo not drawn)
measurement.target: K562
GI50: 19.5 µM (inactive)

Q: GI50 for `O=C1c2cccc(O)c2C(=O)c2cccc(O)c21` ?
Result: > 100 µM (inactive)

Q: Ok, now Cc1ccc(S(=O)ON2CCC(C(=O)O)(c3ccccc3)CC2)cc1 (stereo not drawn)
Result: > 100 µM (inactive)

Q: Ok, now `N=c1nc(N)nc(N)n1-c1ccc(S(N)(=O)=O)cc1`
Result: > 100 µM (inactive)

Q: Ok, now `Nc1nc(-c2ccccc2)nc2oc(-c3cccs3)nc12`
Result: > 100 µM (inactive)

* * *

Tested on: OVCAR-5
Test: NCI tumour cell line growth inhibition, 48 h
Activity calls are given as the source filed them. Rule as the data show it: active = GI50 up to about 1.1 µM and inactive = higher.
Item-by-item account of GI50

compound: CN(C)CCN1C(=O)CC[C@@]2(C)C1=CC[C@@H]1[C@@H]2CC[C@@]2(C)[C@H]1CC[C@]2(C)O
result.value: > 100 µM (inactive)

Q: GI50 for `COCn1cnc2c(=O)n(-c3ccc(OC)cc3)c(=S)n(-c3ccc(OC)cc3)c21` ?
Result: > 100 µM (inactive)

Q: Ok, now `COc1ccccc1/C=C1\Sc2scc(-c3ccc(O)c(O)c3)[n+]2C1=O`
Result: 26.5 µM (inactive)

Q: Ok, now CCC(=O)Nc1ccc(N2C(=O)C(Cl)C2c2ccc(SC)cc2)cc1 (stereo not drawn)
Result: 97.5 µM (inactive)

Q: Ok, now `CCOC(=O)CN.CCOC(=O)Nc1ccc(S(=O)(=O)OC)cc1.CCOC(=O)Nc1ccc(S(=O)(=O)OC)cc1`
Result: > 50 µM (inactive)

Q: Ok, now `COC(=O)/C(C#N)=C1\CCc2ccccc21`
Result: > 100 µM (inactive)

Q: Ok, now `CC1(C)[C@@H]2CC[C@@]1(C)[C@@H]1O[C@@H](O[C@@H](CN)c3cc(Cl)c(OCc4ccccc4)c(OCc4ccccc4)c3)C[C@H]21`
Result: 0.166 µM (active)

Q: Ok, now COCCNC1CCC2(SCCS2)c2[nH]c3ccccc3c21 (stereo not drawn)
Result: > 100 µM (inactive)
